System: Tracheal chains of guinea pig
Assay: In vitro bronchodilator activity, relaxation of tracheal chains (Magnus method)
Conditions: Cavia porcellus, relative to 0.1 mcg./ml. isoproterenol, read-out: EC50 (concentration producing a relaxation which is 50% of the maximum response to 0.1 mcg./ml. of isoproterenol)
Description: Tracheal chains of guinea pig were prepared by the method of A. Akcasu, Arch. Int. […] The response to each test compound was recorded by the Magnus method and expressed as a percentage of the maximum response obtained with 0.1 mcg./ml. of isoproterenol prior to each experiment.
experimental endpoint: EC50 (µg/mL)

Nc1nc(NC2CCCCC2)nc2c1ncn2C1CCCCC1 ... 0.21

P = CCCNc1nc(N)c2ncn(C3CCCCC3)c2n1
Q = CCCNc1nc(N)c2ncn(C3C=CCCC3)c2n1 (stereo not shown)
R = Nc1nc(NC2CCCCC2)nc2c1ncn2C1C=CCCC1 (stereo not shown)
In this exercise, place the 3 molecules in ascending sequence of their recorded EC50. In plain terms: list the labels in the order you were asked to.
R, Q, P
(R: 0.24 µg/mL, Q: 0.47 µg/mL, P: 0.75 µg/mL)
